- Test system: BT-549 breast
- ASSAY_TEXT: NCI tumour cell line growth inhibition, 48 h
Measured TGI, listed per entry.
All answers are understood in µM, so give the number only.

COc1cc2c(cc1C)NC(=O)/C2=C/c1c(Cl)[nH]c2ccccc12
9.35

Enter TGI (test system BT-549 breast) for Clc1ccc(Cc2nc3cc(Cl)c(Cl)cc3n2CC2CCCN3CCCCC23)cc1 (configuration not stated)
26.1

For BT-549 breast, give the measured TGI of the entry NC1CC(=O)c2c(I)sc(I)c21 (configuration not stated)
37.4

---

Let's look at some compounds and their measured GI50.
- System: RPMI-8226 leukemia
- ASSAY_TEXT: NCI tumour cell line growth inhibition, 48 h

COC(=O)c1sc(-n2cnc3cc(OC)c(OC)cc32)cc1OCc1ccccc1C(F)(F)F
> 25 µM
ClC/C=C/CSc1ncnc2nc[nH]c12
> 100 µM

Let's switch to this compound now.
Tell me measured GI50 for C=C(CN1CCN(c2cc(C(F)(F)F)cc(C(F)(F)F)c2)CC1)c1ccc(C(=O)Nc2ccccc2N)cc1 please.
1.65 µM
